Hello, the source for this data is ChEMBL document CHEMBL4359924, in case you need it.

- testSummary: Fraction unbound in rat plasma
- Assay type: ADME, cell-free
observationType: fraction unbound

# example entries with known answers
smilesRecord: Cc1nnc2ccc(C(=O)NC3CN(c4ncc(C#N)cc4Cl)C3)cc2c1C
measurement: 0.008
//
smilesRecord: Cc1nnc2ccc(C(=O)NC3CN(c4cc(Cl)ncc4Cl)C3)cc2c1C
measurement: 0.017
//
smilesRecord: Cc1nnc2ccc(C(=O)NC3CN(c4ccc(F)c(F)c4)C3)cc2c1C
measurement: 0.002

a: Cc1nnc2ccc(C(=O)NC3CN(c4ncc(Cl)cc4F)C3)cc2c1C
b: COc1cc(N2CC(NC(=O)c3ccc4nnc(C)c(C)c4c3)C2)c(Cl)cn1
Query: Response body: label of entry with the larger fraction unbound; valid values a , b . Response format: the label of the selected entry.
Reply: a
